assay: Mean residence time in rat at 1 mg/kg, iv; format: ADME, organism-based; design: dose 1 mg/kg, route intravenous; settings: in vivo
Value Type: MRT (h)

CN(c1ccc(F)c(NC(=O)c2cccc(OC(C)(C)C#N)c2Cl)c1)c1ccc2nc(NC(=O)C3CC3)sc2n1.O.O=S(=O)(O)c1ccccc1 | 3.13

====

target: Mitogen-activated protein kinase kinase kinase 1 (Homo sapiens); assay: Inhibition of MEKK1
Sequence (Q13233 whole entry): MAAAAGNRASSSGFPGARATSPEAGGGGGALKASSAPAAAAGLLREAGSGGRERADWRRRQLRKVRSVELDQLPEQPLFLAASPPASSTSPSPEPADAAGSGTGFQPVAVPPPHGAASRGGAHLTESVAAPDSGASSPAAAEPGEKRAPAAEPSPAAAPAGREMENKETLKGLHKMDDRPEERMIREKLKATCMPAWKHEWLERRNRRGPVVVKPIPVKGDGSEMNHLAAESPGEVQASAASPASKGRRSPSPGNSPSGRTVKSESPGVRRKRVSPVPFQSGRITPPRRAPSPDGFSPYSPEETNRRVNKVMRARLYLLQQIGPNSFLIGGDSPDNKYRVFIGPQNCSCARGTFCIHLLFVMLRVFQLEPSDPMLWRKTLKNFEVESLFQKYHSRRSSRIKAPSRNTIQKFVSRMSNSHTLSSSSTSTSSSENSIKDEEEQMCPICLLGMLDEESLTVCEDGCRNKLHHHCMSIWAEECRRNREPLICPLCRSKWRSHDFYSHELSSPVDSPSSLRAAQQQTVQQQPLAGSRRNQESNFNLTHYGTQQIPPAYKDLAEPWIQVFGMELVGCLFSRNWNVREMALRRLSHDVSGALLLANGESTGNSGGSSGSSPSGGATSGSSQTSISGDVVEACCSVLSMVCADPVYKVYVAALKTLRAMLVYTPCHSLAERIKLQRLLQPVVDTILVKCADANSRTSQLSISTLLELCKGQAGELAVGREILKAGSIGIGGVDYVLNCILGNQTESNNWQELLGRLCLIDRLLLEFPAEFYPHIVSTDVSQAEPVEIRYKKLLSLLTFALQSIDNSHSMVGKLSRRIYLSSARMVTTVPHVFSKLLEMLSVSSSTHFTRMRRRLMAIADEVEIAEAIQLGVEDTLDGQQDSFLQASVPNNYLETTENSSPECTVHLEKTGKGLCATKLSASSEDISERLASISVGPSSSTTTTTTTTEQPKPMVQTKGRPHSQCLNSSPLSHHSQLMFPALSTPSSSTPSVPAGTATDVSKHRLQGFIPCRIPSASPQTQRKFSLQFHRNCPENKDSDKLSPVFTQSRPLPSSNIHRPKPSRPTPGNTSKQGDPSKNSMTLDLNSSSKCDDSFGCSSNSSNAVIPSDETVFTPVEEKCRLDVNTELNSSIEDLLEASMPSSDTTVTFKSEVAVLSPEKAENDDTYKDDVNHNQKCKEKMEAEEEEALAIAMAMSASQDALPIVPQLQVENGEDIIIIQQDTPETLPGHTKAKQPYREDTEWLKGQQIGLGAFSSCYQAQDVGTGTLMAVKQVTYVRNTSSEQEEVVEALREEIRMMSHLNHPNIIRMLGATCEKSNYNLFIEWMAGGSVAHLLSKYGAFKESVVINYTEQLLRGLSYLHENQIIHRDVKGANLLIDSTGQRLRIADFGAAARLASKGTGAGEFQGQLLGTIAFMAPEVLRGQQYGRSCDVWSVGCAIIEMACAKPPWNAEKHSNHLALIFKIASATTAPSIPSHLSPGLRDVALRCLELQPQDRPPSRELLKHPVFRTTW
Value Type: IC50

CN(c1ccc(F)c(NC(=O)c2cccc(OC(C)(C)C#N)c2Cl)c1)c1ccc2nc(NC(=O)C3CC3)sc2n1 | > 10 µM

====

Target: Inhibitor of nuclear factor kappa-B kinase subunit beta (Homo sapiens)
Sequence (O14920 whole entry): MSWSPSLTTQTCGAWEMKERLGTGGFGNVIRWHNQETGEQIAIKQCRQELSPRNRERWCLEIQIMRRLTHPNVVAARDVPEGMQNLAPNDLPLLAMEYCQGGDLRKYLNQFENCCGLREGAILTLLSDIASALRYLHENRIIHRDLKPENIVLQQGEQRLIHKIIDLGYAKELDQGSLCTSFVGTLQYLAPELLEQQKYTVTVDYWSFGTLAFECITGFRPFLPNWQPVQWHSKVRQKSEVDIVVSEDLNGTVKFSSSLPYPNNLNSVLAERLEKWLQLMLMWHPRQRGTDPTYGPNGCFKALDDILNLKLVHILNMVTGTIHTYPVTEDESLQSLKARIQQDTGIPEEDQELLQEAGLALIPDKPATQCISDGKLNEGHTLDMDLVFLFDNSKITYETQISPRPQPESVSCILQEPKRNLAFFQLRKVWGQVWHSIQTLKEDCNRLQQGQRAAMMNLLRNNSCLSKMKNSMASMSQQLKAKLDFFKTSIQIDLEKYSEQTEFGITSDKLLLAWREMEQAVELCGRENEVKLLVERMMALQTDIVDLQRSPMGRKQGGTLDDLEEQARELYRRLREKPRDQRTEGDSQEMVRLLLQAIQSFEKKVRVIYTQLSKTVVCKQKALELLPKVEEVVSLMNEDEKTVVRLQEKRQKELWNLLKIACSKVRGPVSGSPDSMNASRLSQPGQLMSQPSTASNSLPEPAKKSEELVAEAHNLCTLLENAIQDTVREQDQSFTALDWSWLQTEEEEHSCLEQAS
Test: Inhibition of IKKbeta
Value Type: IC50 (µM)

CN(c1ccc(F)c(NC(=O)c2cccc(OC(C)(C)C#N)c2Cl)c1)c1ccc2nc(NC(=O)C3CC3)sc2n1 | 8.1
